# TEST_NAME: Effective permeability of the compound measured after 5 hrs by PAMPA
# Assay type: ADME
# EXPERIMENTAL_SETUP: read-out: Peff
ASSAY_ENDPOINT: Papp at 5 h (×10⁻⁶ cm/s)

(1) COc1ncc(-c2cc3c(C)nc(NC(C)=O)nc3s2)cc1NS(=O)(=O)c1ccc(F)cc1F
(2) COc1ncc(-c2cc3c(C)nc(N)nc3s2)cc1NS(=O)(=O)c1ccc(F)cc1F
Request: Form: Entry with minimum Papp at 5 h (choose one): 1 / 2 Write down the label attached to your selection.
Result: 2

====

# Tested on: U-87 MG
# TEST_NAME: Antiproliferative activity against human U87MG cells after 4 days by Celltiter-Glo luminescence cell viability assay
# Format: functional, cell-based, U-87MG ATCC
# EXPERIMENTAL_SETUP: 96 h
ASSAY_ENDPOINT: pIC50
Notebook: values listed as pIC50 are -log10 of the concentration (mol/L).

Request: Please state recorded pIC50 (tested on U-87 MG) of `COc1ccc(-c2cc3c(C)nc(N)nc3n([C@H]3CC[C@H](OCCO)CC3)c2=O)cn1`
Result: 6.47

Hello, the source for this data is ChEMBL document CHEMBL4219058, in case you need it.
